This collection of values is drawn from PubChem BioAssay (NCI).

Tested on: SK-MEL-5 melanoma
MEASUREMENT_PROTOCOL: NCI-60 one-dose screen, 48 h (100 = growth as untreated, 0 = no growth, -100 = all killed)
MEASUREMENT_CONTEXT: 10 µM unless noted
About 83,000 compounds went through this panel and 20% of them were active in at least one assay; those are over-represented in the sample as a whole.
REPORTED_ENDPOINT: growth (%)
One number for each entry, in %.

Use the examples below as a reference point.
Q) Data request, read-out growth, for O=C1/C(=C/c2cnc(-c3ccccc3)s2)SC(=S)N1Cc1ccc2c(c1)OCO2
A) 96.9

Q) Same lookup for COc1ccc(-c2cc(-c3ccccc3)c(C#N)c(=O)[nH]2)cc1S(N)(=O)=O , please.
A) 104

Q) Same lookup for Fc1ccc(F)c(CNc2nc(SCCN3CCOCC3)nc3c2cnn3CC(Cl)c2ccc(Br)cc2)c1 (centres undefined) , please.
A) -12.9

Would you mind listing growth for each of the following compounds?
1. COc1ccc(N=Nc2c(N)nn3c(N)c(C#N)c(-c4ccc(F)cc4)nc23)cc1
2. CCOc1ccc2[nH]c(=O)c(C(c3nnnn3CC3CCCO3)N3CCN(Cc4ccccc4)CC3)cc2c1 (centres undefined)
3. C=CCn1c(O)c(N=Nc2nc(-c3cc4ccccc4oc3=O)cs2)c2ccccc21

A)
[34.7, 104, 33.3]

Would you mind listing growth for each of the following compounds?
1. NCCCCn1c(SCCc2c[nH]c3ccccc23)nnc1-c1ccc2ccccc2n1
2. COc1c2c(c(Br)c3c1C(CCc1ccccc1)N(C)CC3)OCO2 (centres undefined)
3. COc1cc(NC(=O)CSc2nnc(-c3ccc(-c4nc5ccc(Cl)cc5[nH]4)cc3)o2)cc(OC)c1OC

A)
1: -99.4; 2: 25.3; 3: 5.22
